Data origin, for the record: patent US9440957B2

biological target: HCC827 (Del E746-A750) (Homo sapiens, UniProt P00533, DEL746-750); experiment: EGFR target modulation in HCC827 cell line (phospho-EGFR Y1173 ELISA)
Sequence (P00533 with tags, fused parts or gaps DEL746-750): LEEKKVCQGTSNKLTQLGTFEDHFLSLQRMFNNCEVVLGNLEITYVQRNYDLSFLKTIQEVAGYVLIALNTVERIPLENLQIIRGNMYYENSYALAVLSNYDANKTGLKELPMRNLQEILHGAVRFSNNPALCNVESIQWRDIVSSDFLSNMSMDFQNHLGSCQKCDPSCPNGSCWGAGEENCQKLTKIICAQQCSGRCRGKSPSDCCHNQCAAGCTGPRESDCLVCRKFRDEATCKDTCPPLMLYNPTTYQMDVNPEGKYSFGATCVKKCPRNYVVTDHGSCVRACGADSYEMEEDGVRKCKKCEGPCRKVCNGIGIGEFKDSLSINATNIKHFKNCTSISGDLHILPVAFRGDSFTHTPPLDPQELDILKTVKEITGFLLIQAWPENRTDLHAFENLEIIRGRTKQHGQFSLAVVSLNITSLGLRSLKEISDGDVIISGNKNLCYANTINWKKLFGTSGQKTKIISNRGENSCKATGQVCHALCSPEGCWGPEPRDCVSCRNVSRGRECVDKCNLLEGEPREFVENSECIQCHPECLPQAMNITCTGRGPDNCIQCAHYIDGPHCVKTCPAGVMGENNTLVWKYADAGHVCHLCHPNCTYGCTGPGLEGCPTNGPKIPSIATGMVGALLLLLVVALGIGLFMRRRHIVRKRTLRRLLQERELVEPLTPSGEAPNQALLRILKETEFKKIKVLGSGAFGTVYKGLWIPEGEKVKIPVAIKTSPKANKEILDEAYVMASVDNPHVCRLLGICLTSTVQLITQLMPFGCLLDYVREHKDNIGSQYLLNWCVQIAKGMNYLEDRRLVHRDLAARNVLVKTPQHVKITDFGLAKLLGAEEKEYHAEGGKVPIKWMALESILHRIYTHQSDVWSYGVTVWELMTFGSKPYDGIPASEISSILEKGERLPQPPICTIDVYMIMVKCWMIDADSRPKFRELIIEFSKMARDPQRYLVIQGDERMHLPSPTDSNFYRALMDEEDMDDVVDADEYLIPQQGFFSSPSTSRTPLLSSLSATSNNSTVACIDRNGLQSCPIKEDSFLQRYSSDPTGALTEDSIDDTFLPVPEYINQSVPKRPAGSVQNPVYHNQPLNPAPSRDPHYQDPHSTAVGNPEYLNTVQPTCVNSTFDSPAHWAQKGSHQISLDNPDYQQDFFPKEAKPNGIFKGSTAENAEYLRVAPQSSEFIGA
pIC50: −log10 of the molar value.
Result Type: pIC50

>  <Smiles String>
Cc1cc(C(=O)Nc2nc3cccc(Cl)c3n2[C@@H]2CCCCN(C(=O)/C=C/CN(C)C)C2)cc(C)n1

>  <Assay System>
HCC827 (Del E746-A750) (Homo sapiens, UniProt P00533, DEL746-750)

>  <Obs Value>
8.15

$$$$

[A] O=C(Nc1nc2cccc(Cl)c2n1[C@@H]1CCCCN(C(=O)/C=C/CN2CCCC2)C1)c1ccnnc1
[B] Cc1cc(C(=O)Nc2nc3cccc(C(F)(F)F)c3n2[C@@H]2CCCCN(C(=O)/C=C/CN(C)C)C2)cc(C)n1
[C] C=CC(=O)N1CCC[C@@H](n2c(NC(=O)c3cccc(C(F)(F)F)c3)nc3cc(CN4CCOCC4)ccc32)C1
[D] C=CC(=O)N1CCC[C@@H](n2c(NC(=O)c3cccc(C(F)(F)F)c3)nc3cc(CN(C)C(C)=O)ccc32)C1
[E] C=CC(=O)N1CCCC[C@@H](n2c(NC(=O)c3cccc(C(F)(F)F)c3)nc3cccc(C(F)(F)F)c32)C1
Ordering: ascending pIC50. Rank the items, then write their labels in that order.
C, D, E, B, A
